Molecular target: SARS-CoV-2 spike on pseudovirus or live virus (USA-WA1/2020, WT) (SARS-CoV-2, UniProt P0DTC2 14-1273)
Experiment: cell-based or functional assay
# key: entry, value: Maximum Plateau of Neutralization
endpoint_label: Maximum Plateau of Neutralization (%)

| binder | value |
| --- | --- |
| L12.cP08A09 (antibody, V domains shown, human IgG1) VH: QVQLVQSGAEVKKPGASVKVSCKASGYIYSGYYMHWVRQAPGQGLEWMGWISPDSGGTNYAQRFQGRVTMTRDTSTTTAYMELSRLRSDDTAVYYCARGPRYSGTYFDYWGQGTLVTVSS VL: QSALTQPASVSGSPGQSITISCTGTSSDVGGYNYVSWYQQHPDKAPKLMIYDVSNRPSGVSNRFSGSKSGNTASLTISGLQAEDEADYYCSSYTSGSTQVFGGGTKLTVL | 99 |
| L12.cP07E10 (antibody, V domains shown, human IgG1) VH: EVQLVESGGGLIQPGGSLRLSCAASGFTVSSNYMSWVRQAPGKGLEWVSVIYSGGSTYYADSVKGRFTISRDNSKNTLYLQMNSLRAEDTAVYYCARDPYGYSSIWDGQGGHWGQGTLVTVSS VL: DVVMTQSPSSLSASVGDRVTITCQASQDISNYLNWYQQKPGKAPKLLIYDASNFATGVPSRFSGTGSGTDFTFTISSLQPEDIATYYCQQYDNLPITFGQGTRLEIK | 100 |
| L12.bP11A06 (antibody, V domains shown) VH: EVQLVESGGGLIQPGGSLRLSCAASGLTVSSNYMSWVRQAPGKGLEWVSVIYSGGSTFYADSVKGRFTISRDNSKNTLYLQMNSLRAEDTAVYYCARDLDVYGLDVWGQGTTVTVSS VL: DIVMTQSPSFLSASVGDRVTITCRASQGISSYLAWYQQKPGKAPKLLIYAASTLQSGVPSRFSGSGSGTEFTLTISSLQPEDFATYYCQQLNSYPPKFTFGPGTKVEIK | 100 |

Numbers sourced from patent US20230357364A1.
